# experiment-notes: ACEA_AR_agonist_AUC_viability: ACEA Biosciences xCELLigence Real-Time Cell Analysis on Androgen Receptor Agonism for Viability (AID 2283775)
Records with an inconclusive call do not appear. Calls of active or inactive are those of the source. Rule for the calls: active = hit-call score of the fitted dose curve at least 0.9, where 1 is the maximum; inconclusive = response in the unintended direction; inactive = score below 0.9.
value-kind: outcome

CCCCCCOC(=O)c1ccccc1    inactive
CC(Cc1ccc(O)c(O)c1)C(C)Cc1ccc(O)c(O)c1 (stereo not drawn)    inactive
CCCCCCOC(=O)c1ccccc1O    inactive
CC(C)OC(=O)c1ccccc1C(=O)OC(C)C    inactive
[Co]    inactive
C1COCCN1    inactive
CC/C=C\CCOC(C)=O    inactive

Lab note: next molecule to report on.
GET /value?item= CNC(=S)NC &field=outcome returns inactive

----------
# experiment-notes: CEETOX_H295R_11DCORT: CeeTox H295R High-throughput Steroidogenesis Assay for 11-Deoxycortisol (11DCORT) (AID 2283432)
# condition-set: actives raise or lower the signal
Active and inactive are the calls of the source. The calls were made as follows: active = hit-call score of the fitted dose curve at least 0.9, where 1 is the maximum; inactive = score below 0.9.
Thanks in advance; please answer with one of these: T = active, F = inactive

C#C[C@]1(O)CC[C@H]2[C@@H]3CCc4cc(OC)ccc4[C@H]3CC[C@@]21C    F

QUERY: // return assay outcome for Cc1cccc(N(C)C)c1
RESULT: F

QUERY: // return assay outcome for CC(Cc1ccc(O)c(O)c1)C(C)Cc1ccc(O)c(O)c1 (stereo not given)
RESULT: T

QUERY: // return assay outcome for CCCCCCS
RESULT: F

QUERY: // return assay outcome for Nc1ccc(Oc2cccc(Oc3ccc(N)cc3)c2)cc1
RESULT: F

----------
# target-entity: Nuclear receptor subfamily 4 group A member 2 (Homo sapiens) (UniProt P43354)
# Sequence (P43354 whole entry, looked up): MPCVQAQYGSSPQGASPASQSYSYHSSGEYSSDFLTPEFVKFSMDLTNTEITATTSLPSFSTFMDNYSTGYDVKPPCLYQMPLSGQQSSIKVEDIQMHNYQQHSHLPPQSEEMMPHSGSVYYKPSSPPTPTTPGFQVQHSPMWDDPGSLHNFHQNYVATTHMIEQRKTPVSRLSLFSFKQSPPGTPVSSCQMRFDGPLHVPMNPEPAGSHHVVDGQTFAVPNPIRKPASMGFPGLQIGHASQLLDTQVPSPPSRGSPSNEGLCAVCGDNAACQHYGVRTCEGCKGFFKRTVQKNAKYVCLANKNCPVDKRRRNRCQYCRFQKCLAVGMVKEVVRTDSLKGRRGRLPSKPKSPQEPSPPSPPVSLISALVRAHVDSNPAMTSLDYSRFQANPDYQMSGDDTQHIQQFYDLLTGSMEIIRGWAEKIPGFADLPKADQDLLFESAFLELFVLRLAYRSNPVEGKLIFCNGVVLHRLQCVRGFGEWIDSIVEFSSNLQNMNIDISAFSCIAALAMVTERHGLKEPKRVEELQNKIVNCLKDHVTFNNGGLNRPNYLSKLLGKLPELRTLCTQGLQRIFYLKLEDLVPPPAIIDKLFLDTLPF
# experiment-notes: ATG_NURR1_TRANS: Attagene TRANS-FACTORIAL HepG2 Assay for human Nuclear Receptor Related Protein 1 (NURR1) (AID 2282985)
# condition-set: HepG2 Attagene TRANS reporter, mRNA readout
Records with an inconclusive call do not appear. Active and inactive are the calls of the source. How the source made its calls: active means hit-call score of the fitted dose curve at least 0.9, where 1 is the maximum; inconclusive means response in the unintended direction; inactive means score below 0.9.
Thanks in advance; please answer with one of these: active, inactive

FC(F)(F)C(F)(F)C(F)(F)C(F)(F)CCI    inactive
CCCCOCCOCCOC(=O)CCCCC(=O)OCCOCCOCCCC    inactive
CN(C)Cc1ccccc1O    inactive
C=C(C)C(=O)OCC(F)(F)C(F)(F)C(F)(F)F    inactive
O=C(O)C(F)(F)C(F)(F)C(F)(F)F    inactive

QUERY: // return assay outcome for FC(F)(F)C(F)(F)C(F)(F)C(F)(F)C(F)(F)C(F)(F)CCS
RESULT: inactive

QUERY: // return assay outcome for O=C(Cl)C(F)(F)C(F)(F)C(F)(F)C(F)(F)C(F)(F)C(F)(F)C(F)(F)C(F)(F)F
RESULT: active

QUERY: // return assay outcome for CC(C)OC(=O)c1ccccc1C(=O)OC(C)C
RESULT: inactive

QUERY: // return assay outcome for FC(F)(F)C(F)(F)CNCC(F)(F)C(F)(F)F
RESULT: inactive

QUERY: // return assay outcome for CCCCCCCOC(=O)c1ccccc1C(=O)OCCCCCCC
RESULT: inactive

QUERY: // return assay outcome for O=C(O)C(F)(OC(F)(F)C(F)(OC(F)(F)C(F)(OC(F)(F)C(F)(F)C(F)(F)F)C(F)(F)F)C(F)(F)F)C(F)(F)F (stereo unspecified)
RESULT: inactive

----------
# Read-out: Matrix Metallopeptidase 9 (MMP9), MMP9 (gene 4318)
# experiment-notes: BSK_KF3CT_MMP9: BioMAP Diversity Plus: KF3CT Assay for Matrix Metallopeptidase 9 (MMP9) Biomarker Activity (AID 2283074)
# condition-set: primary human keratinocytes with fibroblasts; actives raise or lower the signal
Active and inactive are the calls of the source. Rule for the calls: active = hit-call score of the fitted dose curve at least 0.9, where 1 is the maximum; inactive = score below 0.9.
Thanks in advance; please answer with one of these: active, inactive

Take a look at these entries with their results.
C=CC(F)(F)C(F)(F)C(F)(F)C(F)(F)C(F)(F)C(F)(F)C(F)(F)C(F)(F)C=C    inactive
FC(F)(F)C(F)(F)C(F)(F)CI    inactive
FC(F)(F)C(F)(F)C(F)(F)C(F)(F)C(F)(F)CCI    inactive
Nc1ccc([N+](=O)[O-])cc1O    inactive
FC(F)(F)C(F)(F)C(F)(F)C(F)(F)C(F)(F)C(F)(F)C(F)(F)C(F)(F)F    inactive

QUERY: // return assay outcome for O=C(O)C(F)(F)C(F)(F)C(F)(F)C(F)(F)F
RESULT: inactive

QUERY: // return assay outcome for COC(=O)CCC(F)(F)C(F)(F)C(F)(F)C(F)(F)F
RESULT: inactive

QUERY: // return assay outcome for C=C(C)C(=O)OCC(F)(F)C(F)(F)C(F)(F)C(F)(F)C(F)(F)C(F)(F)C(F)(F)F
RESULT: inactive

QUERY: // return assay outcome for CC(CCl)OP(=O)(OC(C)CCl)OC(C)CCl (stereo unspecified)
RESULT: inactive

QUERY: // return assay outcome for C#C[C@]1(O)CC[C@H]2[C@@H]3CCc4cc(OC)ccc4[C@H]3CC[C@@]21C
RESULT: active

QUERY: // return assay outcome for CCCCNc1ccccc1
RESULT: inactive

QUERY: // return assay outcome for CCCCCCC(C)OC(=O)CCCCC(=O)OC(C)CCCCCC (stereo unspecified)
RESULT: inactive

QUERY: // return assay outcome for O=C(O)C(F)(F)C(F)(F)OC(F)(F)F
RESULT: inactive

QUERY: // return assay outcome for C=CC(=O)OCC(F)(F)C(F)(F)C(F)(F)C(F)(F)C(F)(F)C(F)(F)C(F)(F)F
RESULT: inactive

QUERY: // return assay outcome for O=C(O)C(F)(F)C(F)(F)C(F)F
RESULT: inactive

QUERY: // return assay outcome for CCCCCCCOC(=O)c1ccccc1C(=O)OCCCCCCC
RESULT: inactive

QUERY: // return assay outcome for FC(F)(F)C(F)(F)C(F)(F)C(F)(F)C(F)(F)C(F)(F)C(F)(F)Br
RESULT: inactive

----------
# Read-out: Interleukin 2 (IL2), IL2 (gene 3558)
# experiment-notes: BSK_BT_xIL2: BioMAP Diversity Plus: BT Assay for Interleukin 2 (IL2) Biomarker Activity (AID 2284245)
# condition-set: primary human B cells with PBMC
Calls of active or inactive are those of the source. The calls were made as follows: active = hit-call score of the fitted dose curve at least 0.9, where 1 is the maximum; inactive = score below 0.9.
Thanks in advance; please answer with one of these: active, inactive

O[Si](c1ccccc1)(c1ccccc1)c1ccccc1    active

QUERY: // return assay outcome for CCCCNc1ccccc1
RESULT: inactive

QUERY: // return assay outcome for O=C(O)C(F)(F)C(F)(F)C(F)F
RESULT: inactive

QUERY: // return assay outcome for O=C(CC(=O)C(F)(F)C(F)(F)F)C(F)(F)F
RESULT: inactive

QUERY: // return assay outcome for O=C(O)C(F)(F)C(F)(F)OC(F)(F)F
RESULT: inactive

QUERY: // return assay outcome for FC(F)(F)C(F)(F)C(F)(F)C(F)(F)C(F)(F)C(F)(F)C(F)(F)I
RESULT: inactive

QUERY: // return assay outcome for Oc1ccc(Nc2ccccc2)cc1
RESULT: active

QUERY: // return assay outcome for OCCCC(F)(F)C(F)(F)C(F)(F)F
RESULT: inactive

QUERY: // return assay outcome for OCC(F)(F)C(F)(F)C(F)(F)C(F)(F)C(F)(F)C(F)F
RESULT: inactive

----------
# target-entity: Cellular tumor antigen p53 (Homo sapiens) (UniProt P04637)
# Sequence (P04637 whole entry, looked up): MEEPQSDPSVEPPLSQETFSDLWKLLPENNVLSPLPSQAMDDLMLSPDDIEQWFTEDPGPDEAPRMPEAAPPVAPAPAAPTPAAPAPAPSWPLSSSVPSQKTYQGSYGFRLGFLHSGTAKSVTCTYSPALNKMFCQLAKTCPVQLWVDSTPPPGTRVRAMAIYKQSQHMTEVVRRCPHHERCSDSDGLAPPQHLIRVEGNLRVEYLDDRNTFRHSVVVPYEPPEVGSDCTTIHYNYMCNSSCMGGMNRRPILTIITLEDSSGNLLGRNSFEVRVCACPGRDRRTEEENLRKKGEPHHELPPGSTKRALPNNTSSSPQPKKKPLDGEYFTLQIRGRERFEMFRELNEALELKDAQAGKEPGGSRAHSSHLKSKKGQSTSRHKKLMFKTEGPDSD
# experiment-notes: ATG_p53_CIS: Attagene CIS-FACTORIAL HepG2 Assay for human p53 Transcription Factor (AID 2282994)
# condition-set: HepG2 p53 cis-element reporter, Attagene mRNA; actives raise or lower the signal
Active and inactive are the calls of the source. The calls were made as follows: active = hit-call score of the fitted dose curve at least 0.9, where 1 is the maximum; inactive = score below 0.9.
Thanks in advance; please answer with one of these: active, inactive

QUERY: // return assay outcome for O=P(O)(O)OCCC(F)(F)C(F)(F)C(F)(F)C(F)(F)C(F)(F)C(F)(F)F
RESULT: inactive

QUERY: // return assay outcome for C=C(C)C(=O)OCC(F)(F)C(F)(F)C(F)(F)F
RESULT: inactive

QUERY: // return assay outcome for CC(CCl)OP(=O)(OC(C)CCl)OC(C)CCl (configuration not stated)
RESULT: inactive

QUERY: // return assay outcome for CCO[Si](CCC(F)(F)C(F)(F)C(F)(F)C(F)(F)C(F)(F)C(F)(F)F)(OCC)OCC
RESULT: inactive

QUERY: // return assay outcome for O=C(O)C(F)(F)C(F)(F)C(F)(F)C(F)(F)C(F)(F)C(F)(F)C(F)(F)C(F)(F)C(F)(F)C(F)(F)C(F)(F)C(F)(F)C(F)(F)F
RESULT: inactive

QUERY: // return assay outcome for FC(F)(F)C(F)(F)C(F)(F)N(C(F)(F)C(F)(F)C(F)(F)F)C(F)(F)C(F)(F)C(F)(F)F
RESULT: inactive

QUERY: // return assay outcome for CC(Cc1ccc(O)c(O)c1)C(C)Cc1ccc(O)c(O)c1 (configuration not stated)
RESULT: inactive

QUERY: // return assay outcome for O=S(=O)(OCCOC(F)(F)F)C(F)(F)F
RESULT: inactive

QUERY: // return assay outcome for O=S(=O)(O)c1ccc2ccccc2c1
RESULT: inactive

QUERY: // return assay outcome for O=S(=O)(O)C(F)(F)C(F)(F)C(F)(F)C(F)(F)C(F)(F)C(F)(F)C(F)(F)F
RESULT: inactive
